Target: T1, recombinant human ZNRF3 extracellular domain (human, UniProt Q9ULT6 56-219)
T1 construct: extracellular domain; also called huZNRF3; human ZNRF3 ECD
T1 sequence (looked up): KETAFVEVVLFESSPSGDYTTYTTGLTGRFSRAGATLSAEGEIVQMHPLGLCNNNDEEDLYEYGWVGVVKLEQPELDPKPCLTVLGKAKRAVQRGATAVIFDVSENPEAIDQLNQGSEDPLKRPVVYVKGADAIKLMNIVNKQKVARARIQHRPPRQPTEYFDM
Assay: SPR Biacore 8K; antibody captured on Protein A; ZNRF3 ECD analyte; 25 C
# pKd per record follows
Quick note: pKd means taking -log10 of the concentration in moles per liter.

ZNRF3-314 (antibody, V domains shown, Rat clone; VH/VL only) VH: QVQLKESGPGLVQPSQTLSLTCNVSGFSFNYYNVHWVRQPPGKGLEWLGVIWSGGNTDYNSALKPRLRISRDTSKSQVFLTLNSLQTEDTGIYYCNRMWGYGYNPFDYWGQGVMVTVSS VL: DIQMTQSPSFLSASLGNNITITCHASQDIKGWLAWYQQKSGNAPELLIYKTSSLQSGVPSRFSGSGSGTEYVLTISNLQPDDIATYYCQLYHSFPFTFGSGTKLEIK : 9.98
ZNRF3-269 (antibody, V domains shown, Rat clone; VH/VL only) VH: EIQLQESGPGLVKPSQSLSLTCSVTDDTITSGYDWSWIRKFPGNKMEWMGDISSSGHTNYNPSLQIRISITRDTSKNQFFLQLNSVTTEDSATYYCARGGFLFPFTFWGQGTLVTVSS VL: DIQMTQSPSSLPASLGERVTISCRASQVLNNNLNWYQQKPDGTIKPLLYYTSNLQSGVPSRFSGSGSGTDYSLTITSLDPEDFAIYYCQQDASFPPTFGGGTKLELK : 9.51
ZNRF3-179 (antibody, V domains shown, Rat clone; VH/VL only) VH: EVQLAESGGGLEQPGRSLKLSCAASGFTFSNYDMAWVRQAPTKGLEWVASIITSGDTTYYRDSVKGRFTVSRDNAKSTLYLQMDSLRSEDTATYHCARHGVGSYDWFADWGQGTLVTVSS VL: DIVLTQSPALAVSLGQRATISCRASQSVTISGYNLMHWYQQKPGQQPKLLIYRASNLAFGIPARFSGSGSGTDFTLTINPVQADDITTYYCQQSRKSRTFGGGTKLELK : 9.96

*Q* Could you please provide reported pKd for ZNRF3-255 (antibody, V domains shown, Rat clone; VH/VL only) VH: EVQLVESGGGLVQPGRSLKLSCAASGFTFSSFTMAWVRQAPKKGLEWVASISSGGGGTYYPDSVKGRFTISRDNAKSTLYLQMDSLRSEDTASYYCATGGFAYWGQGTLVIVSS VL: DIQMTQSPSSLPASLGDRVTITCRASQDIGSYLRWFQQKPGKSPRLMIYGATSLANGVPSRFSGSRSGSDYSLTINNLESEDMAIYYCLQHNEFPYTFGTGTKLELK ? Thanks!
*A* 9.59

These entries and their values trace back to patent US20240101708A1.
